Origin of values: patent US8372855B2

- measurement target: human EGF-R (Homo sapiens, UniProt P00533)
- Sequence (P00533 25-1210): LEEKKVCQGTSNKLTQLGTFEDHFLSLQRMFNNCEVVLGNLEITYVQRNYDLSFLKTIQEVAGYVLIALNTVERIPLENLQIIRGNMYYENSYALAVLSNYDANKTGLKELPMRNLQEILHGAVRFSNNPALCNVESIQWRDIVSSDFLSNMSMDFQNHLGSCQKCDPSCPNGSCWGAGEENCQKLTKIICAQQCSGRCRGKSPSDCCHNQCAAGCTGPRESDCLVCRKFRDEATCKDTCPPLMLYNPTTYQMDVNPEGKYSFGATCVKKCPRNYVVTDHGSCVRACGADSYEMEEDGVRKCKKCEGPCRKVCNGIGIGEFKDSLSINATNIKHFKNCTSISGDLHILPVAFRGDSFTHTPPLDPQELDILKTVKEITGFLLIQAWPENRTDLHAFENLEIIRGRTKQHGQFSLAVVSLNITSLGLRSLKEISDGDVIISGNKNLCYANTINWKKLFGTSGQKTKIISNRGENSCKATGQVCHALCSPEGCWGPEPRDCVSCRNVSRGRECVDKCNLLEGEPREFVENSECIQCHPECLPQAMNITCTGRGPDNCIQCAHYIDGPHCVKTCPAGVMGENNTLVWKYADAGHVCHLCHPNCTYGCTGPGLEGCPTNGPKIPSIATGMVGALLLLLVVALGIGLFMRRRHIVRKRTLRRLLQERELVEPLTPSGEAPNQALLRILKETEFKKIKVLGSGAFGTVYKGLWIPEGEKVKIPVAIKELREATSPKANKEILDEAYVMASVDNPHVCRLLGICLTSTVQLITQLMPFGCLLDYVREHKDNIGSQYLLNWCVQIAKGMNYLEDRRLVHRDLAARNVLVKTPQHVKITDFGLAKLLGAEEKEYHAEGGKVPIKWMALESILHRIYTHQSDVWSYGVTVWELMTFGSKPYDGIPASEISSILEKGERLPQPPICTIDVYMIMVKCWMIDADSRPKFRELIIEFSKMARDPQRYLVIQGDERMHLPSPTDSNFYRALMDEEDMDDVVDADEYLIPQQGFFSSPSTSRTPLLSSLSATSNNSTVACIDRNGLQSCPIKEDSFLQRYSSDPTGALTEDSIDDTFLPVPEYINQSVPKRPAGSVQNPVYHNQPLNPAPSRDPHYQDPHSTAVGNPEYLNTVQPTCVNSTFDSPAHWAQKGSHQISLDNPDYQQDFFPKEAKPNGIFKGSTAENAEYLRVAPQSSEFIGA
- method notes: Inhibition of EGFR-dependent proliferation (EGF-stimulated murine haematopoietic cell line expressing human EGF-R, Cell Titer 96 AQueous assay)
- condition context: 20 ng/ml human EGF, 48 hours at 37° C.

{"columns": ["molecule", "IC50"],
 "data": [
  ["COc1cc2ncnc(Nc3cccc(Cl)c3F)c2cc1O[C@H]1CC[C@H](N2CCN(CC3CC3)C(=O)C2)CC1 [1(1), trans]", "1.7 nM"],
  ["CCCCN1CCN([C@H]2CC[C@H](Oc3cc4c(Nc5cccc(Cl)c5F)ncnc4cc3OC)CC2)CC1=O [1(2), trans]", "3.1 nM"],
  ["COc1cc2ncnc(Nc3cccc(Cl)c3F)c2cc1O[C@H]1CC[C@@H](N2CCN(C3CCOCC3)C(=O)C2)CC1 [1(3), cis]", "9.3 nM"],
  ["CCN1CCN([C@H]2CC[C@H](Oc3cc4c(Nc5cccc(Cl)c5F)ncnc4cc3OC)CC2)CC1=O [1, trans]", "1.3 nM"],
  ["COc1cc2ncnc(Nc3cccc(Cl)c3F)c2cc1O[C@H]1CC[C@H](N2CCN(C3CCOCC3)C(=O)C2)CC1 [1(3), trans]", "1.6 nM"],
  ["CCCCN1CCN([C@H]2CC[C@@H](Oc3cc4c(Nc5cccc(Cl)c5F)ncnc4cc3OC)CC2)CC1=O [1(2), cis]", "12.1 nM"],
  ["CCN1CCN([C@H]2CC[C@@H](Oc3cc4c(Nc5cccc(Cl)c5F)ncnc4cc3OC)CC2)CC1=O [1, cis]", "7.1 nM"],
  ["COc1cc2ncnc(Nc3cccc(Cl)c3F)c2cc1O[C@H]1CC[C@@H](N2CCN(CC3CC3)C(=O)C2)CC1 [1(1), cis]", "10.1 nM"]
]}
